measurement notes: Solubility in solvent or electrolyte
Assay type: physicochemical
condition parameters: organic solvent or mixture; in propylene carbonate
measured parameter: solubility

Request: Recorded solubility for "c1ccc2nccnc2c1" , please?
Response: ≥ 2000 mM
